Test system: kynurenine production in HeLa cells
Test: Inhibition of kynurenine production in HeLa cells
Assay type: cell-based, human
Conditions: Homo sapiens, HeLa, 48 h, HeLa cells, human IFN-γ 50 ng/mL, kynurenine read at 480 nm, read-out: IC50
pIC50: −log10 of the molar value.
quantity: pIC50

P = CC(C)CN(CC(C)C)c1ccc(C2(c3nnn[nH]3)CCC2)cc1NC(=O)Nc1ccc(F)cc1F
Q = CC(C)CN(c1ccc(C2(C(=O)O)CCC2)cc1NC(=O)Nc1ccc(F)cc1F)C1CCOCC1
Endpoint returns the identifier whose pIC50 is numerically larger, either P or Q . Your choice should be expressed through its label.
Q
(Q: 9.22, P: 9.00)

1 = Cc1csc(Nc2cc(C3(C(=O)O)CCC3)ccc2N(CC(C)C)C2CCOCC2)n1
2 = CCOc1ncc(Nc2cc(C3(C(=O)O)CCC3)ccc2N(CC(C)C)CC(C)C)cn1
Given 1 and 2 , report the one with the higher recorded pIC50. Field: selected label. Fill in the label of the entry you choose.
1
(1: 8.96, 2: 8.62)

a = CC(C)CN(CC(C)C)c1ncc(C2(C(=O)O)CCC2)cc1Nc1ccc(Cl)cn1
b = CC(C)CN(c1ccc(C2(C(=O)O)CCC2)cc1Nc1ccc(S(C)(=O)=O)cc1)C1CCOCC1
c = CC(C)CN(c1ccc(C2(C(=O)O)CCC2)cc1Nc1cnn(C)c1)C1CCOCC1
d = CC(C)CN(CC(C)C)c1ccc(OCC(=O)O)cc1NC(=O)Nc1ccc(F)cc1F
Rank descending by pIC50. Record the ranking as a list of labels in the requested order.
a, b, c, d

I = CC(C)N(CC1CC1)c1ncc(C2(C(=O)O)CCC2)cc1Nc1ccc(C#N)cc1
II = CCC(C(=O)O)c1ccc(N(CC(C)C)CC(C)C)c(Nc2ccc(C#N)cc2)c1 (stereo not drawn) [Compound 61A]
When their pIC50 values are compared, which is larger, I or II ? Respond with the label that goes with your answer.
II
(II: 9.52, I: 9.30)
